Tested on: P388
Assay: Concentration required to inhibit 50% of cell growth on murine P388 D1 cells.
Format: functional, cell-based
Details: Mus musculus
Endpoint Label: IC50 (nM)
Numeric only. Scale: nM

Q) Annotate the molecule COc1ccc(C(=O)Oc2ccc(/C=C3\CCCC(CN(C)C)C3=O)cc2)cc1 (stereo not drawn) with its measured IC50.
A) 332

Q) Please report IC50 for the following molecule: `O=C(CCc1ccccc1)Oc1ccc(/C=C2\CCCCC2=O)cc1`
A) 21900

Q) Give a short answer stating reported IC50 for CN(C)CC1CCC/C(=C\c2ccc(OC(=O)c3ccc(Cl)cc3)cc2)C1=O.Cl (stereo not drawn) .
A) 425

Q) Identify IC50 associated with the molecule CN(C)CC1CCC/C(=C\c2ccc(OC(=O)/C=C/c3ccc(F)cc3)cc2)C1=O (stereo not drawn)
A) 4550

Q) Give the measured IC50 for CN(C)CC1CCC/C(=C\c2ccc(OC(=O)/C=C/c3ccc(Cl)cc3)cc2)C1=O.Cl (stereo not drawn)
A) 1610

Q) Fill in reported IC50 for this entry: `O=c1[nH]cc(F)c(=O)[nH]1`
A) 490

* * *

System: Colon carcinoma cell
Assay: Mean graph mid point was measured on colon cancer cells.
Assay type: functional, Homo sapiens
Range-based classes on measured MG MID: c1 (below 2 µM), c2 (2 µM to below 30 µM), c3 (30 µM or more)

Q) Hello team, could you let me know which band the following molecule falls into: CN(C)CC1CCC/C(=C\c2ccc(OC(=O)/C=C/c3ccc(Cl)cc3)cc2)C1=O.Cl (stereo not given)
A) c2

Q) Which bin should I file O=c1[nH]cc(F)c(=O)[nH]1 [FLUOROURACIL] under?
A) c2

Q) # bin lookup: classify CN(C)CC1CCC/C(=C\c2ccc(OC(=O)c3ccc(Cl)cc3)cc2)C1=O.Cl (stereo not given) by its MG MID
A) c1

Q) # bin lookup: classify `O=C(/C=C/c1ccc(Cl)cc1)Oc1ccc(/C=C2\CCCCC2=O)cc1` by its MG MID
A) c3

Q) Could you tell me which band C=C1C(=O)O[C@@H]2C[C@@H](C)[C@@H]3C=CC(=O)[C@@]3(C)[C@@H](O)[C@H]12 [HELENALIN] belongs to?
A) c1

Q) Band for CN(C)CC1CCC/C(=C\c2ccc(OC(=O)/C=C/c3ccccc3)cc2)C1=O.Cl (stereo not given) ?
A) c2

Q) Hello team, could you let me know which band the following molecule falls into: `O=C(/C=C/c1ccc(Cl)c(Cl)c1)Oc1ccc(/C=C2\CCCCC2=O)cc1`
A) c3

Q) Given `COc1ccc(/C=C/C(=O)Oc2ccc(/C=C3\CCCCC3=O)cc2)cc1` , name the class its MG MID places it in.
A) c2

Q) State the band of `N[C@@H](Cc1ccc(N(CCCl)CCCl)cc1)C(=O)O`
A) c3

* * *

Tested on: L1210
Experiment: Concentration required to inhibit 50% of cell growth on murine L1210 cells.
Format: functional, cell-based
Details: Mus musculus
Endpoint Label: IC50 (µM)
# value in µM; strip the unit string

Q) Return reported IC50 for target or system L1210, item CN(C)CC1CCC/C(=C\c2ccc(OC(=O)c3ccccc3)cc2)C1=O (stereo unspecified) .
A) 23.4

Q) Quote IC50 with test system L1210 for O=c1[nH]cc(F)c(=O)[nH]1 [FLUOROURACIL]
A) 0.28

Q) Under L1210: report IC50 of `O=C(/C=C/c1ccc(Br)cc1)Oc1ccc(/C=C2\CCCCC2=O)cc1` .
A) 127

Q) Report IC50 from L1210 testing of `COc1ccc(/C=C/C(=O)Oc2ccc(/C=C3\CCCCC3=O)cc2)cc1`
A) 10.2

Q) Give reported IC50 for `O=C(/C=C/c1ccc(Cl)cc1)Oc1ccc(/C=C2\CCCCC2=O)cc1` (L1210)
A) 64.3

Q) Find the measured IC50 of `O=C(CCc1ccccc1)Oc1ccc(/C=C2\CCCCC2=O)cc1` with L1210 as test system.
A) 52.4

Q) Look up L1210 data: IC50 of CN(C)CC1CCC/C(=C\c2ccc(OC(=O)/C=C/c3ccc(Cl)c(Cl)c3)cc2)C1=O.Cl (stereo unspecified) , then report it.
A) 3.31

Q) Give IC50 for this entry on L1210: `Cc1ccc(/C=C/C(=O)Oc2ccc(/C=C3\CCCCC3=O)cc2)cc1`
A) 202

Q) Fill: IC50 (L1210) for this compound CN(C)CC1CCC/C(=C\c2ccc(OC(=O)/C=C/c3ccccc3)cc2)C1=O.Cl (stereo unspecified)
A) 32.8

Q) Look up and report measured IC50 (L1210) for the following compound: CN(C)CC1CCC/C(=C\c2ccc(OC(=O)c3ccc(Cl)cc3)cc2)C1=O.Cl (stereo unspecified)
A) 5.61

Q) Print L1210 IC50 for CN(C)CC1CCC/C(=C\c2ccc(OC(=O)/C=C/c3ccc(Cl)cc3)cc2)C1=O.Cl (stereo unspecified) .
A) 1.74

Q) Retrieve IC50 on L1210; query Cc1ccc(/C=C/C(=O)Oc2ccc(/C=C3\CCCC(CN(C)C)C3=O)cc2)cc1 (stereo unspecified)
A) 2.43

Q) Please report the measured IC50 for `Cc1ccc(C(=O)Oc2ccc(/C=C3\CCCCC3=O)cc2)cc1` tested on L1210.
A) 44.8

Q) Report IC50 under test system L1210 for COc1ccc(C(=O)Oc2ccc(/C=C3\CCCC(CN(C)C)C3=O)cc2)cc1 (stereo unspecified) .
A) 2.87

Q) Quote L1210 IC50 for entry CN(C)CC1CCC/C(=C\c2ccc(OC(=O)/C=C/c3ccc(F)cc3)cc2)C1=O (stereo unspecified) .
A) 1.84

Q) Output reported IC50 of the compound `O=C1CCCC/C1=C\c1ccc(OC(=O)c2ccc(Cl)cc2)cc1` on L1210.
A) 3.33

Q) With L1210 as the test system, provide measured IC50 for this compound: `O=C(/C=C/c1ccc(F)cc1)Oc1ccc(/C=C2\CCCCC2=O)cc1`
A) 30.9

Q) For L1210, give the measured IC50 of the entry CN(C)CC1CCC/C(=C\c2ccc(OC(=O)/C=C/c3ccc(Br)cc3)cc2)C1=O.Cl (stereo unspecified)
A) 1.78

Q) State, for L1210, measured IC50 of the compound listed here: `O=C(/C=C/c1ccccc1)Oc1ccc(/C=C2\CCCCC2=O)cc1`
A) 30.7

Q) Recall the reported IC50 of `COc1ccc(C(=O)Oc2ccc(/C=C3\CCCCC3=O)cc2)cc1` on L1210 and write it down.
A) 43.4

Q) Return reported IC50 for target or system L1210, item `O=C(/C=C/c1ccc(Cl)c(Cl)c1)Oc1ccc(/C=C2\CCCCC2=O)cc1` .
A) 64.8
